Molecular target: human glucagon receptor (human) (UniProt P47871)
Sequence (P47871 26-477): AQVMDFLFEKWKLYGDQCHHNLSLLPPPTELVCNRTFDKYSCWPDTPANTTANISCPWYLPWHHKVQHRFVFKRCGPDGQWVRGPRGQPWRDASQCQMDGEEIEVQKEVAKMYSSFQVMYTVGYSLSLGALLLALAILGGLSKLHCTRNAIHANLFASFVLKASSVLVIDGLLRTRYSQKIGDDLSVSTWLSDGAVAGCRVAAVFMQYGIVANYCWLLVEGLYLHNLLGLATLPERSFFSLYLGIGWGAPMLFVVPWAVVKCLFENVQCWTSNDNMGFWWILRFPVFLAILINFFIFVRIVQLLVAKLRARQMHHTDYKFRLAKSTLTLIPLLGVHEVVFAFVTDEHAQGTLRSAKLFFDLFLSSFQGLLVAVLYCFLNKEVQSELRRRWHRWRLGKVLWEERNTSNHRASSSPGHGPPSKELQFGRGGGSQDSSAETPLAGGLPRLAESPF
Assay: cell-based or functional assay
Non-standard residues stand in square brackets, D forms with d. No end group written: not given here. αMePhe(2-F) = C[C@](N)(Cc1ccccc1F)C(=O)O; Aib = CC(C)(N)C(=O)O
In plain terms, low Relative cAMP EC50, meaning strictly below 7 nM, gives y, and everything else gives n.

The following binders have reported results that may help.
>>> classification("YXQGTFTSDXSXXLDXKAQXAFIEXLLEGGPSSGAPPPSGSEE (Aib, 4Pal, Orn, αMeL, αMeY; lysine acylated C18 diacid; amide; synthetic construct; SITE 2: note = 2-Aminoisobutyric Acid; SITE 10: note = 3-(4-Pyridyl)-L-alanine; SITE 12: note = L-ornithine; SITE 13: note = alpha-methyl-leucine; SITE 16: note = L-ornithine; SITE 17: note = Lysine is chemically modified through conjugation of the epsilon-amino group of the Lys) [Example 1064]")
"n"
>>> classification("YXQGTFTSDFSXXLDKKAQXAFIEYLLAGGPSSGAPPPSGS (synthetic construct; SITE 2: note = 2-Aminoisobutyric Acid; SITE 12: note = L-ornithine; SITE 13: note = alpha-methyl-leucine; SITE 17: note = Lysine is chemically modified through conjugation of the epsilon-amino group of the Lysine side chain with (2-[2-(2-Amino-ethoxy)-ethoxy]-acetyl)-(gamma-Glu)) [Example 76]")
"n"
>>> classification("YXQGTXTSDXSIXLDXXAQXXFIEXLIEGGPSSGEPPPETE (synthetic construct; SITE 2: note = 2-Aminoisobutyric Acid; SITE 6: note = alpha-methyl-2-fluoro-L-phenylalanine; SITE 10: note = 3-(4-Pyridyl)-L-alanine; SITE 13: note = alpha-methyl-leucine; SITE 16: note = L-ornithine; SITE 17: note = Ornithine is chemically modified through conjugation of the ep) [Example 1209]")
"y"
>>> classification("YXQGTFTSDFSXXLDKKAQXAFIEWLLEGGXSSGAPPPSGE (synthetic construct; SITE 2: note = 2-Aminoisobutyric Acid; SITE 12: note = L-ornithine; SITE 13: note = alpha-methyl-leucine; SITE 17: note = Lysine is chemically modified through conjugation of the epsilon-amino group of the Lysine side chain with (2-[2-(2-Amino-ethoxy)-ethoxy]-acetyl)-(gamma-Glu)) [Example 104]")
"n"

Challenge: Is 7 nM strictly greater than the binder's reported Relative cAMP EC50? binder: Y[Aib]QGT[αMePhe(2-F)]TSDYSKILDKIAQKAFIQYLIEGGPSSGEPPPSEG-NH2 (not fully specified (residue 20)) [Example 354]
Response given: n

Challenge: Is 7 nM strictly greater than the binder's reported Relative cAMP EC50? binder: Y[Aib]QGT[αMePhe(2-F)]TSDYSKLLDKIAQKAFIEYLIEGGPSSGAPPPSGE-NH2 (not fully specified (residue 20)) [Example 356]
Response given: y

Challenge: Is 7 nM strictly greater than the binder's reported Relative cAMP EC50? binder: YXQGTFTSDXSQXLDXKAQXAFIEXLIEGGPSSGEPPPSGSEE (non-natural residues; lysine acylated with C18 diacid; C-terminal amide; synthetic construct; SITE 2: note = 2-Aminoisobutyric Acid; SITE 10: note = 3-(4-Pyridyl)-L-alanine; SITE 13: note = alpha-methyl-leucine; SITE 16: note = L-ornithine; SITE 17: note = Lysine is chemically modified through conjugation of the epsilon-amino group of the Lysine side chain with (gamma-Gl)) [Example 1028]
Response given: y

Challenge: Is 7 nM strictly greater than the binder's reported Relative cAMP EC50? binder: YXQGTFTSDFSXXLDKKAQXAFIEWLLEGGHSSGAPPPGGE (synthetic construct; SITE 2: note = 2-Aminoisobutyric Acid; SITE 12: note = L-ornithine; SITE 13: note = alpha-methyl-leucine; SITE 17: note = Lysine is chemically modified through conjugation of the epsilon-amino group of the Lysine side chain with (2-[2-(2-Amino-ethoxy)-ethoxy]-acetyl)2-(gamma-Glu)) [Example 271]
Response given: n
